Biological target: Platelet-derived growth factor receptor beta (Homo sapiens, UniProt P09619)
Sequence (P09619 whole entry): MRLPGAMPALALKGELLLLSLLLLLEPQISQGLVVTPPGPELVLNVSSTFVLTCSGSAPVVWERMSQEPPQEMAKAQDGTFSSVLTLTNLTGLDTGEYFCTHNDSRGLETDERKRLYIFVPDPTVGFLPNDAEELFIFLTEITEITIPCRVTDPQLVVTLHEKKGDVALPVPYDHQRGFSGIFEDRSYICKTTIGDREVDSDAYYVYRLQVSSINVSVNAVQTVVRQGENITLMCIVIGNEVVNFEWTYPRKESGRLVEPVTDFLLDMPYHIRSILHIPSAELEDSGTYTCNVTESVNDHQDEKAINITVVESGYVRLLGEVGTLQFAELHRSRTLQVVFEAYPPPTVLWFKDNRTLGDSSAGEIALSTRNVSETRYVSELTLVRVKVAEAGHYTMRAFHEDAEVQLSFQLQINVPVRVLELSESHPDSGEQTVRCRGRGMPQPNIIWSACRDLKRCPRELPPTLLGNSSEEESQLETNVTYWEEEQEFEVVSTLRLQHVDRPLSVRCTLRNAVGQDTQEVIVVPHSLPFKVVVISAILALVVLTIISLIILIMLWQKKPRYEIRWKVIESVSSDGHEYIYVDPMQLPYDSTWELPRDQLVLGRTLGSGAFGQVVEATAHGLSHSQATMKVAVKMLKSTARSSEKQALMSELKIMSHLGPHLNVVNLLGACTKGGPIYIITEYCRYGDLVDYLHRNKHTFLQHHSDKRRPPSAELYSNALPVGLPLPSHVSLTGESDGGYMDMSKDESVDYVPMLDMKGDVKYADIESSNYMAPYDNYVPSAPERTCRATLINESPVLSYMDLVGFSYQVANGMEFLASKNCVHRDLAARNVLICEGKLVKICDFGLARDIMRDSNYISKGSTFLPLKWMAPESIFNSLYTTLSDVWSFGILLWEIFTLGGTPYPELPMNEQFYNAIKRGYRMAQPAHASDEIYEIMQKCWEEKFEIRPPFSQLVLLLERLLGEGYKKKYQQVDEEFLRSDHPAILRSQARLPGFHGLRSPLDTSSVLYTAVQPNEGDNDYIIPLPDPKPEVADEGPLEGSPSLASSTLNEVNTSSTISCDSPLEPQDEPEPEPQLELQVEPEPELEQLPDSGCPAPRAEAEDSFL
Assay: PDGFRbeta : Automated FLIPR (Fluorometric Imaging Plate Reader) technology was used to screen for inhibitors of PDGF-induced increases in intracellular calcium levels in fluorescent dye loaded endothelial cells. NHDF-Ad (Normal Human Dermal Fibroblasts, Adult; Lonza) were seeded in 384-well fibronectin coated black-walled plates overnight @ 37° C./5% CO2. Cells were loaded with calcium indicator Fluo-4 for 45 minutes at 37° C. Cells were washed 2 times (Elx405, Biotek Instruments) to remove extracellular dye. For screening, cells were pre-incubated with test agents for 30 minutes, at a single concentration (10 uM) or at concentrations ranging from 0.0001 to 10.0 uM followed by PDGF-BB stimulation (30 ng/mL). Changes in fluorescence at 516 nm were measured simultaneously in all 384 wells using a cooled CCD camera. Data were generated by determining max-min fluorescence levels for unstimulated, stimulated, and drug treated samples.
Assay type: cell-based, Endothelial cell
metricName: IC50 (nM)
# number only, unit nM dropped from output

Quick one: IC50 for Cc1ccoc1C(=O)Nc1cccc(C#Cc2cncc(C(=O)N=S(C)(=O)CCCO)c2)c1 (stereo unspecified) ?
31
